Recorded Cell viability (% of negative control) for the following molecules
System: Vero E6 cells
Assay: Detection of drug cytotoxicity by CCK-8 kit
Format: cell-based
Details: 3.13 μM drug, 48 h

Molecule | Cell viability (% of negative control)
C=C1C(=O)O[C@@]23[C@H]1CC[C@@H](C)[C@@H]2CC[C@@]1(C)O[C@@H]31 | 94.86 % of negative control
C[C@H]1[C@@H](O)O[C@@H]2O[C@@]3(C)CC[C@H]4[C@H](C)CC[C@@H]1[C@@]24OO3 [dihydroartemisinin] | 93.03 % of negative control
CO[C@H]1O[C@@H]2O[C@@]3(C)CC[C@H]4[C@H](C)CC[C@@H]([C@H]1C)[C@@]24OO3 | 103.68 % of negative control
C[C@H]1[C@H](OC(=O)CCC(=O)O)O[C@@H]2O[C@@]3(C)CC[C@H]4[C@H](C)CC[C@@H]1[C@@]24OO3 [artesunate] | 97.52 % of negative control
C[C@@H]1CC[C@H]2[C@@H](C)C(=O)O[C@@H]3O[C@@]4(C)CC[C@@H]1[C@]32OO4 | 101.55 % of negative control

###

Recorded measurements of Cell viability (% of negative control), one per entry
Test system: Vero E6 cells
Assay: Detection of drug cytotoxicity by CCK-8 kit
Format: cell-based
Conditions: 100 μM drug, 48 h
Recorded endpoint: Cell viability (% of negative control)

Compound | Recorded endpoint | Result
C[C@H]1[C@@H](O)O[C@@H]2O[C@@]3(C)CC[C@H]4[C@H](C)CC[C@@H]1[C@@]24OO3 [dihydroartemisinin] | Cell viability (% of negative control) | 2.33 % of negative control
C=C1C(=O)O[C@@]23[C@H]1CC[C@@H](C)[C@@H]2CC[C@@]1(C)O[C@@H]31 | Cell viability (% of negative control) | 26.24 % of negative control
C[C@H]1[C@H](OC(=O)CCC(=O)O)O[C@@H]2O[C@@]3(C)CC[C@H]4[C@H](C)CC[C@@H]1[C@@]24OO3 [artesunate] | Cell viability (% of negative control) | 21.71 % of negative control
C[C@@H]1CC[C@H]2[C@@H](C)C(=O)O[C@@H]3O[C@@]4(C)CC[C@@H]1[C@]32OO4 | Cell viability (% of negative control) | 109.14 % of negative control
CO[C@H]1O[C@@H]2O[C@@]3(C)CC[C@H]4[C@H](C)CC[C@@H]([C@H]1C)[C@@]24OO3 | Cell viability (% of negative control) | 130.18 % of negative control

###

Test system: Vero E6 cells
Assay: Detection of drug cytotoxicity by CCK-8 kit
Assay type: cell-based
Conditions: 12.5 μM drug, 48 h
Protocol: The detection of drug cytotoxicity was performed by CCK-8 kit (Beoytime). Specific steps were as follows: (1) 1×10^4 Vero E6 (ATCC) cells were inoculated into a 96-well plate and cultured at 37° C. for 8 hours. […] wherein A represents reading of microplate reader. […]
Overview of reported Cell viability (% of negative control) across a group of compounds:

Compound | Measured target | Cell viability (% of negative control)
C[C@H]1[C@@H](O)O[C@@H]2O[C@@]3(C)CC[C@H]4[C@H](C)CC[C@@H]1[C@@]24OO3 [dihydroartemisinin] | Vero E6 cells | 88.94 % of negative control
C=C1C(=O)O[C@@]23[C@H]1CC[C@@H](C)[C@@H]2CC[C@@]1(C)O[C@@H]31 | Vero E6 cells | 111.44 % of negative control
C[C@@H]1CC[C@H]2[C@@H](C)C(=O)O[C@@H]3O[C@@]4(C)CC[C@@H]1[C@]32OO4 | Vero E6 cells | 112.55 % of negative control
CO[C@H]1O[C@@H]2O[C@@]3(C)CC[C@H]4[C@H](C)CC[C@@H]([C@H]1C)[C@@]24OO3 | Vero E6 cells | 115.49 % of negative control
C[C@H]1[C@H](OC(=O)CCC(=O)O)O[C@@H]2O[C@@]3(C)CC[C@H]4[C@H](C)CC[C@@H]1[C@@]24OO3 [artesunate] | Vero E6 cells | 93.38 % of negative control

###

Tested on: Vero E6 cells
Assay: Detection of drug cytotoxicity by CCK-8 kit
Type: cell-based
Conditions: 50 μM drug, 48 h

Compound | Measured target | Cell viability (% of negative control)
CO[C@H]1O[C@@H]2O[C@@]3(C)CC[C@H]4[C@H](C)CC[C@@H]([C@H]1C)[C@@]24OO3 | Vero E6 cells | 120.26 % of negative control
C[C@H]1[C@@H](O)O[C@@H]2O[C@@]3(C)CC[C@H]4[C@H](C)CC[C@@H]1[C@@]24OO3 [dihydroartemisinin] | Vero E6 cells | 22.18 % of negative control
C=C1C(=O)O[C@@]23[C@H]1CC[C@@H](C)[C@@H]2CC[C@@]1(C)O[C@@H]31 | Vero E6 cells | 74.40 % of negative control
C[C@H]1[C@H](OC(=O)CCC(=O)O)O[C@@H]2O[C@@]3(C)CC[C@H]4[C@H](C)CC[C@@H]1[C@@]24OO3 [artesunate] | Vero E6 cells | 55.44 % of negative control
C[C@@H]1CC[C@H]2[C@@H](C)C(=O)O[C@@H]3O[C@@]4(C)CC[C@@H]1[C@]32OO4 | Vero E6 cells | 110.71 % of negative control

###

Test system: Vero E6 cells
Test: Detection of drug cytotoxicity by CCK-8 kit
Assay type: cell-based
Conditions: 6.25 μM drug, 48 h

Molecule | Measured target | Cell viability (% of negative control)
C[C@@H]1CC[C@H]2[C@@H](C)C(=O)O[C@@H]3O[C@@]4(C)CC[C@@H]1[C@]32OO4 [artemisinin] | Vero E6 cells | 104.23 % of negative control
C=C1C(=O)O[C@@]23[C@H]1CC[C@@H](C)[C@@H]2CC[C@@]1(C)O[C@@H]31 [arteannuin B] | Vero E6 cells | 102.66 % of negative control
C[C@H]1[C@@H](O)O[C@@H]2O[C@@]3(C)CC[C@H]4[C@H](C)CC[C@@H]1[C@@]24OO3 [dihydroartemisinin] | Vero E6 cells | 100.38 % of negative control
CO[C@H]1O[C@@H]2O[C@@]3(C)CC[C@H]4[C@H](C)CC[C@@H]([C@H]1C)[C@@]24OO3 [artemether] | Vero E6 cells | 115.71 % of negative control
C[C@H]1[C@H](OC(=O)CCC(=O)O)O[C@@H]2O[C@@]3(C)CC[C@H]4[C@H](C)CC[C@@H]1[C@@]24OO3 [artesunate] | Vero E6 cells | 100.64 % of negative control
